Reported Ki is given for each of the following molecules.
assay: Inhibition of mouse polyamine oxidase assessed as conversion of N-acetylspermine to […]
Write the number in µM without appending the unit.

>  <STRUCTURE>
N=C(N)c1ccc(OCCCCCOc2ccc(C(=N)N)cc2)cc1

>  <QUANTITY KIND>
Ki

>  <ASSAY VALUE>
7.6

$$$$

Next molecule, please.
Item `N=C(N)c1ccc(/N=N/Nc2ccc(C(=N)N)cc2)cc1` has what recorded Ki?
120

----------
assay: Binding affinity to r(CUG)6 (unknown origin) assessed as inhibition of RNA-MBNL1 interaction by quantitative TR-FRET assay
QUANTITY KIND: pIC50
Just so you know, pIC50 here is -log10 of the concentration in molar units; reply with that number alone.

>  <STRUCTURE>
N=C(N)c1ccc(OCCOc2cccc(N)c2)cc1

>  <pIC50>
3.60

$$$$

Next compound, please.
Item `N=C(N)c1ccc(NC(=O)c2ccc(C(=O)Nc3ccc(C(=N)N)cc3)c(N)c2)cc1` has what recorded pIC50?
5.00

----------
molecular target: Glutamate NMDA receptor; GRIN1/GRIN2A (Homo sapiens, UniProt Q05586+Q12879); experiment: Antagonist activity at NR1/NR2A receptor (unknown origin) expressed in Xenopus laevis oocytes assessed as inhibition of glutamate/glycine-induced current at pH 7.6 at -40mV holding potential by two-electrode voltage-clamp electrophysiology
Sequence (Q12879 whole entry, other chains not shown): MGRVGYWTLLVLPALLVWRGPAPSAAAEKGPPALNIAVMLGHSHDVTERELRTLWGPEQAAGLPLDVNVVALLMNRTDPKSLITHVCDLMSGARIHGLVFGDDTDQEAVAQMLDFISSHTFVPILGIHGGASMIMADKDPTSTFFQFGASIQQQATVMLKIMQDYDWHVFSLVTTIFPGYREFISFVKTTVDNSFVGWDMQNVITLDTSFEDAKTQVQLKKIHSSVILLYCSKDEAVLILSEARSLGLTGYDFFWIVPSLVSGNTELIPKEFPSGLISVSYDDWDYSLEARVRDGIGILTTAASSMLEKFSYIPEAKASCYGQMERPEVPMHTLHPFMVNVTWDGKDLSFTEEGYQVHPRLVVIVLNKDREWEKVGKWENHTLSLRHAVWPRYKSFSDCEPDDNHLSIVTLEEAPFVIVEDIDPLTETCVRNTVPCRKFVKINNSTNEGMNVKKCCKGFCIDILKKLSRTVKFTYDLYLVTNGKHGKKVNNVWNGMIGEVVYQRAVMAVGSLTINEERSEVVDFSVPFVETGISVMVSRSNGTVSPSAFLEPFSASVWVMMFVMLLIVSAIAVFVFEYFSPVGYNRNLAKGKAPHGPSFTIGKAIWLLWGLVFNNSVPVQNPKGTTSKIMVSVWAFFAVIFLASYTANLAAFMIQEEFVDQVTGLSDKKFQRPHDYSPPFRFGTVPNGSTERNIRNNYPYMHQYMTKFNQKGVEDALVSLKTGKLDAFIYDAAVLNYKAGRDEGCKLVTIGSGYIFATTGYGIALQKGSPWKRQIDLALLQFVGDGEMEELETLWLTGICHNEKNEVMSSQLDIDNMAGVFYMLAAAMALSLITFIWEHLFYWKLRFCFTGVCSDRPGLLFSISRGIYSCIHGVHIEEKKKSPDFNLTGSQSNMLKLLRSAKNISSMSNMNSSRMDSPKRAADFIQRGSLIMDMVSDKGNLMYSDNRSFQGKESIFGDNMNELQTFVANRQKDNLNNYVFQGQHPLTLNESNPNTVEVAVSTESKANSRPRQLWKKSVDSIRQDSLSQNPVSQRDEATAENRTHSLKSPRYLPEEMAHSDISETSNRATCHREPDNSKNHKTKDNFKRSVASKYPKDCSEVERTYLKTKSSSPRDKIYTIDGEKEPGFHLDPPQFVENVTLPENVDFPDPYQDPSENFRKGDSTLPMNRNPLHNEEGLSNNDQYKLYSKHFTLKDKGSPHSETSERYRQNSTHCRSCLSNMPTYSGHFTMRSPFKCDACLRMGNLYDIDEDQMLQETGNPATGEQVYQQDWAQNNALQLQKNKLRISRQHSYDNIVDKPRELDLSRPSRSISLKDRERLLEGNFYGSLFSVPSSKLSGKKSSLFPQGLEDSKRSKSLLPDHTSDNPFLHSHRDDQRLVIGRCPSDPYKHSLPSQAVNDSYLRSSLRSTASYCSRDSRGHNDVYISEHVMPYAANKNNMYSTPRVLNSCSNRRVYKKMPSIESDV
Reported pIC50 is given for each of the following compounds.
Just so you know, pIC50 here is -log10 of the concentration in molar units; reply with that number alone.

# example entries with known answers
>  <COMPOUND>
CN1CC[C@@]23CCCC[C@@H]2[C@@H]1Cc1ccc(O)cc13

>  <pIC50>
5.89

$$$$
>  <COMPOUND>
N=C(N)c1ccc(OCCCCCOc2ccc(C(=N)N)cc2)cc1

>  <pIC50>
6.14

$$$$

Next compound, please.
Item CNC1(c2ccccc2Cl)CCCCC1=O (stereo not drawn) has what recorded pIC50?
5.48

----------
biological target: Glutamate [NMDA] receptor; assay: Antagonist activity at NMDA receptor (unknown origin)
QUANTITY KIND: IC50 (µM)
Write the number in µM without appending the unit.

Item `N=C(N)c1ccc(N2CCCN(c3ccc(C(=N)N)cc3)CC2)cc1` has what recorded IC50?
1.19

----------
biological target: Diamine oxidase [copper-containing] (Homo sapiens, UniProt P19801); test: Mixed type inhibition of recombinant human DAO expressed in drosophila S2 cells
Sequence (P19801 whole entry): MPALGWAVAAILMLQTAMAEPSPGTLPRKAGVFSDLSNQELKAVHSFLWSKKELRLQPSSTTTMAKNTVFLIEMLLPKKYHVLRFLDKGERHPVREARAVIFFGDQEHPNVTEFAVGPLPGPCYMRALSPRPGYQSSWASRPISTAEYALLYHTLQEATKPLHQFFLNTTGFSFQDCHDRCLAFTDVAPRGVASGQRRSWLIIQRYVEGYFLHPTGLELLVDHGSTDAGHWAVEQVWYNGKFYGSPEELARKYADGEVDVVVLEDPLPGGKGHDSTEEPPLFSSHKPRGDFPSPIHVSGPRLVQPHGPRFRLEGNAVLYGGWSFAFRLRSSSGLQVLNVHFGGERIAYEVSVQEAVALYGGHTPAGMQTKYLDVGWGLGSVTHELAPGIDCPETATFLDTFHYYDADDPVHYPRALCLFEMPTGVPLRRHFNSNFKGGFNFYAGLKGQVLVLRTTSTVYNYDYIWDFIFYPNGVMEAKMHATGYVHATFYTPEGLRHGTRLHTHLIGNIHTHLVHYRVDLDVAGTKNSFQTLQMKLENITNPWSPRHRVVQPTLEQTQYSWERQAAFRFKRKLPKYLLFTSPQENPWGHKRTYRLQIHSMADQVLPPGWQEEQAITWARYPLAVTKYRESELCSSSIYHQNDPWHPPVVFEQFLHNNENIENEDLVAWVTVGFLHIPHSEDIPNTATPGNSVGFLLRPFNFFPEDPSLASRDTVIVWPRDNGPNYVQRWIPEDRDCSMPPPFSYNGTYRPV
QUANTITY KIND: Ki (nM)
Write the number in nM without appending the unit.

>  <STRUCTURE>
N=C(N)c1ccc(/N=N/Nc2ccc(C(=N)N)cc2)cc1

>  <UNIT SYMBOL>
nM

>  <Ki>
13

$$$$

Item `N=C(N)c1ccc(OCCCCCOc2ccc(C(=N)N)cc2)cc1` has what recorded Ki?
290

----------
molecular target: Diamine acetyltransferase 1 (Homo sapiens, UniProt P21673)
Sequence (P21673 whole entry): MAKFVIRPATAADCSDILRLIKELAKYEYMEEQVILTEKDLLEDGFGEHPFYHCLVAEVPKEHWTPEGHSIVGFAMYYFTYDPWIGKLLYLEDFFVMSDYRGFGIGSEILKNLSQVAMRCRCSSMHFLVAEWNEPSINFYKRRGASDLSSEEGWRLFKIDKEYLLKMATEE
QUANTITY KIND: Ki (nM)
Write the number in nM without appending the unit.

Item N=C(N)c1ccc(/N=N/Nc2ccc(C(=N)N)cc2)cc1 [DIMINAZENE] has what recorded Ki?
2400
